Species on record: Homo sapiens
test-summary: Liver toxicity in human assessed as induction of drug-induced liver injury by measuring severity class index
Entries and their DILI_severity_class
measured-parameter: DILI_severity_class

1) C[C@]12CC[C@@H]3c4ccc(O)cc4CC[C@H]3[C@@H]1CC[C@@H]2O ... 2
2) CC(=O)NO [ACETOHYDROXAMIC ACID] ... 3
3) NNCCc1ccccc1 ... 3
4) CSCC[C@H](NC(=O)[C@H](Cc1c[nH]c2ccccc12)NC(=O)CCNC(=O)OC(C)(C)C)C(=O)N[C@@H](CC(=O)O)C(=O)N[C@@H](Cc1ccccc1)C(N)=O ... 0
5) CCN1CCN(C(=O)N[C@@H](C(=O)N[C@@H]2C(=O)N3C(C(=O)O)=C(CSc4nnnn4C)CS[C@H]23)c2ccc(O)cc2)C(=O)C1=O ... 3
6) c1cc(CN2CCCNCCNCCCNCC2)ccc1CN1CCCNCCNCCCNCC1 ... 0
7) COc1ccc(OC)c(C(O)CNC(=O)CN)c1 (configuration not stated) ... 0

====

Species on record: Homo sapiens
test-summary: Liver toxicity in human assessed as induction of drug-induced liver injury by measuring severity class index
measured-parameter: DILI_severity_class

1) O=c1[nH]cc(F)c(=O)[nH]1 [FLUOROURACIL] ... 0
2) CCCCS(=O)(=O)N[C@@H](Cc1ccc(OCCCCC2CCNCC2)cc1)C(=O)O [TIROFIBAN] ... 0
3) CCN1CCN(C(=O)N[C@@H](C(=O)N[C@@H]2C(=O)N3[C@@H]2SC(C)(C)[C@@H]3C(=O)O)c2ccccc2)C(=O)C1=O [PIPERACILLIN] ... 3
4) Cc1cc(Br)c(O)c2ncccc12 [TILBROQUINOL] ... 8
5) COc1ccccc1OCC(O)CO (stereo not given) [GUAIFENESIN] ... 0
6) CN1CCC[C@@H]1CCO[C@](C)(c1ccccc1)c1ccc(Cl)cc1 [CLEMASTINE] ... 0
7) C[C@H](Cc1cc2c(c(C(N)=O)c1)N(CCCO)CC2)NCCOc1ccccc1OCC(F)(F)F [SILODOSIN] ... 3
8) CCCNCC(O)COc1ccccc1C(=O)CCc1ccccc1 (stereo not given) [PROPAFENONE] ... 3
9) Cc1nc2n(c(=O)c1CCN1CCC(c3noc4cc(F)ccc34)CC1)CCCC2 [RISPERIDONE] ... 3
10) CN1C(=O)CCS(=O)(=O)C1c1ccc(Cl)cc1 (stereo not given) [CHLORMEZANONE] ... 8

====

Species: Homo sapiens
test-summary: Liver toxicity in human assessed as induction of drug-induced liver injury by measuring verified drug-induced liver injury concern status
measured-parameter: DILI_Concern

1) COc1cc2nc(N(C)CCCNC(=O)C3CCCO3)nc(N)c2cc1OC (stereo not given) ... Less-Dili-Concern
2) Nc1nc(N)c2nc(-c3ccccc3)c(N)nc2n1 ... Less-Dili-Concern
3) C[C@@H](O)[C@@H]1NC(=O)[C@H](CCCCN)NC(=O)[C@@H](Cc2c[nH]c3ccccc23)NC(=O)[C@H](Cc2ccccc2)NC(=O)[C@@H](NC(=O)[C@H](N)Cc2ccccc2)CSSC[C@@H](C(=O)N[C@H](CO)[C@@H](C)O)NC1=O [OCTREOTIDE] ... Less-Dili-Concern
